# Target of assay: UniProtKB P46663
# Sequence (P46663 whole entry): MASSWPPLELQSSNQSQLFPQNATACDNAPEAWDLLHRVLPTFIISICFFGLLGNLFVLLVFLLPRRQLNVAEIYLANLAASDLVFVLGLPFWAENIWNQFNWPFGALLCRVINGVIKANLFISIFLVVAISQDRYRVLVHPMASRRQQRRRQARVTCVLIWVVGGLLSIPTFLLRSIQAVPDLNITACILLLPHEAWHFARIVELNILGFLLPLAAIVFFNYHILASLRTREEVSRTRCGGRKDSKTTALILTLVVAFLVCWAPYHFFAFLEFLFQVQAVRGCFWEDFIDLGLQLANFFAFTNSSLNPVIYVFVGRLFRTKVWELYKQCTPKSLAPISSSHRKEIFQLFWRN
# Assay remarks: In vitro assay of human B1 receptor function using calcium flux (aequorin)
# Measurement parameters: CHO D-/hB1/Aequorin cells, agonist 20 nM des-Arg10-Kallidin (EC80); read-out: binding IC50's to hB1 receptor function
Reported endpoint: IC50

Recall the recorded IC50 for Cc1ccc(S(=O)(=O)N[C@H](Cc2cn([C@@H]3CCOc4cc(CN5CCC(F)CC5)ccc43)nn2)C(N)=O)cc1 with UniProtKB P46663 and state it.
< 1000 nM

Measured values drawn from patent US7414134B2 for this set.
